Provenance of the data: patent US9045470B2

Biological target: human TLR7 (Homo sapiens)
Construct: expressed in transfected cells; host or cells: HEK 293 (human embryonic kidney 293), stably transfected; co-transfected pNifty-Luciferase reporter
Sequence (Q9NYK1 27-1049): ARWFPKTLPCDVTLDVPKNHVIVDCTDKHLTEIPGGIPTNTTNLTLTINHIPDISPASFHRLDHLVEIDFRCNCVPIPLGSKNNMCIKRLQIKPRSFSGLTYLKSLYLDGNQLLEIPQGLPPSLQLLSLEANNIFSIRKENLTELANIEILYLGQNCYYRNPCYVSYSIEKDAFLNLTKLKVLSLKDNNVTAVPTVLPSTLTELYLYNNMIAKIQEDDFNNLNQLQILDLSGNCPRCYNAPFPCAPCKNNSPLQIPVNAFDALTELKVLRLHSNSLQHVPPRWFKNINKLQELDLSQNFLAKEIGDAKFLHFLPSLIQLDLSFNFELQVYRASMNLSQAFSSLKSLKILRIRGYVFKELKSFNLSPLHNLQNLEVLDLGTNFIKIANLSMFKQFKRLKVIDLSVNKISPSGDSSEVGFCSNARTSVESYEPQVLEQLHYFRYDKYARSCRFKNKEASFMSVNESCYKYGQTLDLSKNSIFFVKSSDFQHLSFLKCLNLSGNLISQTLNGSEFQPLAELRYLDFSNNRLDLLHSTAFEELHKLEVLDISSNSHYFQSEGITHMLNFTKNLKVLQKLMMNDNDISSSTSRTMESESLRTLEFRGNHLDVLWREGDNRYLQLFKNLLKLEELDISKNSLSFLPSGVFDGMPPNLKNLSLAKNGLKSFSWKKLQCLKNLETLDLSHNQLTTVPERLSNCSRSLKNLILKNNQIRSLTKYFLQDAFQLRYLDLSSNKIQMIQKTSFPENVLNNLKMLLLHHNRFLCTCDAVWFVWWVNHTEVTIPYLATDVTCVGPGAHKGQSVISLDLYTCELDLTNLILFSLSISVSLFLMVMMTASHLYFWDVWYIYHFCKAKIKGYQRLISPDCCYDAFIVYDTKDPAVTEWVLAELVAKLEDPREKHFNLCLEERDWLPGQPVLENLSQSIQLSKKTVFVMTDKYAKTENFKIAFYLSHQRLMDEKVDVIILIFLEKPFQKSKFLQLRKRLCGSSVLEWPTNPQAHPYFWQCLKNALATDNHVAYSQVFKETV
Assay: Reporter gene assay: HEK293 cells stably transfected with human TLR7 and NF-kB-driven luciferase reporter
Type: cell-based
Conditions: HEK293 stably transfected with human TLR7 and NF-kB luciferase reporter; 7 hours incubation; relative to resiquimod set to 100%; read-out: Human TLR7 EC50 (nM) HEK293
reported.endpoint: EC50 (nM)
Please reply with the bare figure in nM and do not write the unit itself.

1) Cc1ccc2c(c1)nc(N)c1ncc(CCc3ccc(OP(=O)(O)O)cc3C)cc12 [Compound 2] : 315

Here's the next entry for you.
Q: EC50 of Cc1cc(OCCOCCP(=O)(O)O)ccc1CCc1cnc2c(N)nc3cc(CCC(=O)O)ccc3c2c1 [Compound 21] on human TLR7 (Homo sapiens)?
Result: 204
